The measured values listed here are drawn from patent US20220125947A1.

- experimental-system: T1, γδ T cell receptor on human γδ T cells (human)
- T1 construct: also called AG000003021 (γδ T cells)
- assay: flow cytometry, dose-response (DRC) binding at 37°C on human γδ T cells
property-measured: Max. Activity (fold over background)
# value in fold over background; strip the unit string

binder	measurement
VG9B639 (antibody, human IgG1, kappa, V domains shown, also called antibody #64) VH: QVQLVQSGGGLVKPGGSLRLSCAASGFTFTTYRMNWVRQAPGKGLEWVSSISSSSIYIHSADSVKGRFTISRDNAKNSLYLQMNSLRAEDSAIYYCARERVYTVSFDYWGQGTLVTVSS VL: DIQMTQSPSSLSASVGDRVTITCQASQDISHYLNWYQQKPGKAPKLLIYDSYILETGVTSRFSGSGSGTDFTFTINSLQPEDIAIYYCQQYDNLPYTFGQGTKVEIKR	3240
VG9B159 (antibody, human IgG1, lambda, V domains shown, also called antibody #73) VH: EVQLVQSGPGLVKPSETLSLTCTVSGGSISSYYWSWIRQPAGKGLEWIGRFYTGGRNNYNPSFKSRVTMSVDTSQNQFSLKLSSVTAADTAVYYCARDMEYYYDRSGYSYWYFDLWGRGTTVTVSS VL: SYELMQPPSVSVAPGQTARITCGGNNIGSKSVHWYQQKPGQAPVLVVYDDSDRPSGIPERFSGSNSGNTATLTISRVEAGDEADYYCQVWDSSSDHVVFGGGTKLTVLG	2510
VG9B465 (antibody, human IgG1, lambda, V domains shown, also called antibody #74) VH: QVQLQQSGPGLVKPSETLSLTCTVSGGSITSYYWNWIRQPAGKGLEWIGRIYTIGNTNYNPSLKSRVTMSIDTSKHQFSLKLSSVTGADTAVYYCAREGYYESDGSFFPGAFNIWGQGTMVTVSS VL: SSELTQPASVSGSPGQSITISCTGTSNDVGSYNLVSWYQQHPGKAPKLMIYAGSKRPSGISNRFSGSKSGNTASLTISGLQAEDEADYYCCSYAGTTNVVFGGGTKVTVLG	2500
VG9B194 (antibody, human IgG1, lambda, V domains shown, also called antibody #75) VH: EVQLLESGAEVKKPGASVKVSCKASGYTFTGDYMHWVRQAPGQGLEWMGWINPNSGYTNNAEKFQGRVTMTRDTSISTAYMELSRLSSDDTAVYYCTRELDALDVWGQGTMVTVSS VL: QSVLTQPPSASGSPGQSVTISCTGTSSDVGGYNYVSWYQQHPGKAPKLMIYEVSKRPSGVPDRFSGSKSGNTASLTVSGLQAEDEADYYCNSYAGSNNFEVFGGGTKVTVLG	2470
VG9B201 (antibody, human IgG1, lambda, V domains shown, also called antibody #65) VH: QVTLKESGPTLVKPTQTLTLTCTFSGFSLTTHGVGVGWIRQPPRKALEWLALIYWNADKHYSPSLKSRLTITKDTSKNQVVLTMTHMDPVDTATYYCAHEGDWGHYFDFWGQGTLVTVSS VL: QLVLTQPPSVSAAPGQKVTISCSGSSSNIGNNDVSWYQQLPGTAPKLLIYDNNRRPSGIPDRFSGSKSGTSATLGITGLQTGDEADYYCETWDSSLSAIWVFGGGTKVTVLG	3170

// sample VG9B111 (antibody, human IgG1, kappa, V domains shown, also called antibody #62) VH: QVQLLESGGGLVKPGGSLRLSCAASGFTFSTYSVNWVRQAPGKGLEWVSSISSDSSYIFYADSMKGRFTISRDNAKNSLYLHMNSLRAEDTAVYYCARDSVTGPFDYWGQGTLVTVSS VL: DIVMTQSPSSLSASVGDRVTITCQASQDISHYLNWYQQKPGKAPKLLIYDSYILETGVTSRFSGSGSGTDFTFTINSLQPEDIAIYYCQQYDNLPYTFGQGTKVEIKR , its Max. Activity was 3430

So for VG9B396 (antibody, human IgG1, lambda, V domains shown, also called antibody #60) VH: EVQLVESGPGLVQPSETLSLTCTVSGDSIRGYYWNWIRQPAGKGLEWIGRIFTTGNTNYNPSLKSRLTMSLDTSKNQFSLKLNSVTAADTAVYYCAREKWDSSSSALYFDFWGQGTLVTVSS VL: QSVLTQAPSVSGAPGQRVTISCTGSSSNIGADYDVKWYQQLPGTAPKLLIYGNTDRPSGVPDRFSGSKSGTSASLAITGLQAEDEADYYCQSYDSRLTGYVVFGGGTKLTVLG , the logged Max. Activity turned out to be 4540

// Max. Activity lookup, binder = VG9B470 (antibody, human IgG1, kappa, V domains shown, also called antibody #61) VH: QVTLKESGPTLVKPTQTLTLTCTFSGFSLTTSGVGVGWIRQPPGKALEWLALILWNDHTIYSPSLKSRLTITKDTSKNQVVLTMTNMDPVDTAAYFCARDKWELRDAFDIWGQGTMVTVSS VL: EIVMTQSPSFLSASVGDRVTFTCRASQGISRYLAWYQQKPGRAPNLLIYVASTLQSGVPSRFSGSGSGTEFTLTISSLLPEDFATYYCQQLISYPYTFSQGTRLEIKR , result: 4270

Record VG9B383 (antibody, human IgG1, lambda, V domains shown, also called antibody #67) VH: QVQLQESGPGLVKPSETLSLTCTVSSGSISSYYWNWIRQPAGKGLEWVGRIYTIGNTNYNPSLKSRVTMSIDTSKNQFSLNLSSVTAADTAVYFCAREGYYDSSGSFFPGAFGIWGQGTMVTVSS VL: SSELTQPASVSGSPGQSITISCTGTSNDVGSYNLVSWYQQHPGKAPKLMIYAGSKRPSGISNRFSGSKSGNTASLTISGLQAEDEADYYCCSFAGATNVVFGGGTKLTVLG , field Max. Activity: 2780
